# Test system: Mycobacterium tuberculosis
# test_protocol: Antitubercular activity against isoniazid/rifampicin-resistant Mycobacterium tuberculosis 12525 clinical isolate measured after 7 days by microplate alamar blue assay
# Type: functional
# settings: Mycobacterium tuberculosis, 12525, 168 h
measurement_kind: MIC90 (µg/mL)
Answer format: numeric, µg/mL implied, no suffix.

Would you please look over these solved cases?
O=c1nc(N2CCN(CC3CCCCC3)CC2)sc2c([N+](=O)[O-])cc(C(F)(F)F)cc12; 0.116
O=C(NCc1ccc(N2CCN(c3ccc(F)cc3)CC2)cc1)c1cc([N+](=O)[O-])cc([N+](=O)[O-])c1; 0.047

// switching to the query compound
Query: Field request: MIC90 | item: "O=C(NCc1ccc(N2CCSCC2)cc1)c1cc([N+](=O)[O-])cc([N+](=O)[O-])c1"
Result: 0.017

* * *

# Tested on: Mycobacterium tuberculosis
# test_protocol: Antitubercular activity against isoniazid/rifampicin-resistant Mycobacterium tuberculosis 12525 clinical isolate measured after 7 days by microplate alamar blue assay
# Assay type: functional
# settings: Mycobacterium tuberculosis, 12525, 168 h
measurement_kind: MIC90 (µg/mL)
Output spec: scalar in µg/mL, unitless text.

Recorded results for 2 compounds are shown here.
O=C(NCc1ccc(N2CCC(C(F)(F)F)CC2)cc1)c1cc([N+](=O)[O-])cc(C(F)(F)F)c1; 0.138
O=C(NCc1ccc(N2CC3CCCCC3C2)cc1)c1cc([N+](=O)[O-])cc([N+](=O)[O-])c1 (stereo not given); 0.031

Query: # input compound: "O=C(NCc1ccc(N2CCC(c3ccc(OC(F)(F)F)cc3)CC2)cc1)c1cc([N+](=O)[O-])cc([N+](=O)[O-])c1" ; wanted: its MIC90
Result: 0.21

src = ChEMBL document CHEMBL4196125
